Data credit: ChEMBL document CHEMBL1833855

# Tested on: Candida albicans
# experimentSummary: Antifungal activity against Candida albicans ATCC 90028 assessed as zone of inhibition at 100 ug/disc after 48 hrs by agar disc diffusion method
# Format: functional
# conditionInfo: ATCC 90028, 48 h, read-out: DIZ
valueKind: zone of inhibition at 100 µg/disc (mm)
The figure you give is taken to be in mm; do not add the unit.

// worked examples, zone of inhibition at 100 µg/disc included
O=C(C[C@@H](c1ccc(Cl)cc1)[C@@H]1CCCc2[se]nnc21)c1ccccc1 = 15
O=C(C[C@@H](c1ccccc1)[C@@H]1CCCc2[se]nnc21)c1ccc2ccccc2c1 = 10

**Query** Tell me the measured zone of inhibition at 100 µg/disc of Clc1ccc(-c2nn[se]c2[C@@H](c2ccccc2)[C@@H]2CCCc3[se]nnc32)cc1 , please.
**Result** 13
